# Tested on: SK-MEL-2
# procedureText: NCI tumour cell line growth inhibition, 48 h
Calls of active or inactive are those of the source. Cut-off read from the data, not from the text of the source: active = GI50 up to about 1.1 µM and inactive = higher.
Catalogue of GI50 values

Worked set:
# testSmiles, measuredTarget, reportedMeasurement
records = [
    ("CCCCCCCCCCCCCCCCOP(=O)([O-])OCC[N+](C)(C)C1CC(C)(C)N(O)C(C)(C)C1", "SK-MEL-2", "> 100 µM (inactive)"),
    ("COc1cc(-c2cc(=O)c3cc4c(cc3[nH]2)OCO4)cc(OC)c1O", "SK-MEL-2", "> 10 µM (inactive)"),
    ("CC(C)OP(=O)(OC(C)C)/C(=N/Nc1ccc([N+](=O)[O-])cc1)Nc1ccccc1", "SK-MEL-2", "40.1 µM (inactive)"),
    ("N#Cc1ccc(/N=N/N2CCCC2)cc1", "SK-MEL-2", "> 100 µM (inactive)"),
    ("Oc1ncnc2c1CCCN2", "SK-MEL-2", "> 100 µM (inactive)"),
]

Consider the additional compound presented here.
Which GI50 value belongs to CC(=O)/C(=C/N1C(=O)CC(=O)NC1=S)C(=O)Nc1ccccc1C ?
> 100 µM (inactive)

---

# Tested on: CCRF-CEM
# procedureText: NCI tumour cell line growth inhibition, 48 h
Calls of active or inactive are those of the source. Cut-off read from the data, not from the text of the source: active = GI50 up to about 1.1 µM and inactive = higher.
endpoint: GI50

Worked set:
# compound, endpoint, reportedMeasurement
records = [
    ("O=C(CNc1ccccc1[N+](=O)[O-])Nn1cnc2ccc(S(=O)(=O)Nc3ccccc3[N+](=O)[O-])cc2c1=O", "GI50", "> 100 µM (inactive)"),
    ("COC(=O)C(CCC1C=CCC1)/N=C\\c1ccccc1 (stereo unspecified)", "GI50", "56 µM (inactive)"),
    ("CCN(CC)c1c(C(=O)/C=C/c2ccc(OC)cc2)c(-c2ccccc2)nn(C)c1=O", "GI50", "6.78 µM (inactive)"),
    ("CC(=O)N/N=C1\\NC(=O)C[C@H]2[C@@H]3CC=C4C[C@@H](OC(C)=O)CC[C@]4(C)[C@H]3CC[C@]12C", "GI50", "> 100 µM (inactive)"),
    ("N#CC12C(=O)N3C(=NC(c4ccccc4)NC3c3ccccc3)C1(C#N)C(c1ccccc1)NC1=C2CCCC1 (stereo unspecified)", "GI50", "30.3 µM (inactive)"),
]

Which GI50 value belongs to Clc1ccc(CN2COc3c(cc(Cl)c4cccnc34)C2)cc1 ?
1.79 µM (inactive)

Param item: O=C(c1cc2c(c3ccccc13)NC1(CCCCC1)N=C2C(F)(F)F)C(F)(F)F
3.39 µM (inactive)

---

# Tested on: SW-620
# procedureText: NCI tumour cell line growth inhibition, 48 h
Active and inactive are the calls of the source. No stated cut-off is given here; in the data, active = GI50 up to about 1.1 µM and inactive = higher. Non-standard residues stand in square brackets, D forms with d. Square brackets hold non-standard residues; d marks the D form. Residues, ends and D or L forms follow the SMILES beside them. Peptide text beside a SMILES is read from it. * marks the point of attachment. *: point of attachment. X26 = COC1=CC(=O)N(C(=O)[C@@H](O*)C(C)C)[C@H]1Cc1ccccc1; NMeF = CN[CH](Cc1ccccc1)C(=O)O; NMeV = CN[CH](C(=O)O)C(C)C; Hexanoyl = CCCCCC(=O)*; Boc = CC(C)(C)OC(=O)*
Catalogue of GI50 values

# compound, GI50
rows = [
    ("CC(C)C(NC(=O)OC(C)(C)C)C(=O)N(C)C(Cc1ccccc1)C(=O)N(C)C(C(=O)O)C(C)C (stereo not drawn) (Boc-Val-[NMeF]-[NMeV]-OH; configuration not given here)", "> 100 µM (inactive)"),
    ("CCCCCC(=O)N[C@H](C(=O)N[C@H](C(=O)N(C)[C@H](C(=O)N1CCC[C@H]1C(=O)N1CCC[C@H]1C(=O)O[C@H](C(=O)N1C(=O)C=C(OC)[C@@H]1Cc1ccccc1)C(C)C)C(C)C)C(C)C)C(C)C (Hexanoyl-VV[NMeV]PP-X26)", "> 100 µM (inactive)"),
    ("C/C(=N\\NC(=O)c1ccncc1)c1cccc(C(F)(F)F)c1", "> 10 µM (inactive)"),
    ("COC(=O)/C(Cl)=C1/CC1COCc1ccccc1 (configuration not stated)", "21.1 µM (inactive)"),
    ("Cc1c(C)c(C)n(C2OC(CO)C(O)C(O)C2O)c(=S)c1C#N (configuration not stated)", "> 100 µM (inactive)"),
]

Which GI50 value belongs to Nc1ncnc2oc(-c3cccs3)nc12 ?
> 100 µM (inactive)

Param item: CC1=C(C(=O)Nc2ccc([N+](=O)[O-])cc2)C(c2ccc(N(C)C)cc2)C(C(=O)Nc2ccc([N+](=O)[O-])cc2)=C(C)N1
23.9 µM (inactive)
